Tested on: OVCAR-8
experiment: NCI tumour cell line growth inhibition, 48 h
Active and inactive are the calls of the source. Cut-off read from the data, not from the text of the source: active = GI50 up to about 1.1 µM and inactive = higher.
I would appreciate it if you answered using one of these outcomes: yes for active, no for inactive

COc1ccc(/C(C#N)=C/c2ccc(OC)c(OC)c2)cc1 :: no
CN1CCc2ccccc2C(C(=O)c2ccc3c(c2)OCO3)C1=O (stereo not given) :: no
CCC(C)C(Nc1c2ccccc2nc2c(C(=O)NCCN(C)C)cccc12)C(=O)O (stereo not given) :: no
ClCCCC1COc2ccccc2O1 (stereo not given) :: no
COC(=O)C1=C(c2cc(OC)c(OC)c(OC)c2)O[C@H](c2ccc3c(c2)OCO3)[C@H]1COC(C)=O :: no
O=C(N/C(=C\c1ccc(Br)cc1)c1nc2ccccc2s1)c1ccccc1 :: no
O=C(O)[C@@H]1CSCN1C(=O)[C@@H]1CCC(=S)N1 :: no
CCC(=O)Nc1ccc(NS(=O)(=O)c2ccc(Cl)cc2)cc1 :: no
c1cncc(CC2(c3cc4ccccc4[nH]3)OCCO2)c1 :: no
CCOC(=O)C1CCCN1C(=O)c1ccccc1Cl (stereo not given) :: no

Just curious, what result did O=S(=O)(O)c1ccc(/N=N/c2ccccc2)cc1 get here? no

Just curious, what result did O=S(O)CCCSSCCCCSSCCCS(=O)O get here? no

Just curious, what result did CC(C)(C)OC(=O)NCCC1CNc2ccccc21 (stereo not given) get here? no

Just curious, what result did C1=NN(Cc2ccccc2)C(N(Cc2ccccc2)Cc2ccccc2)N1 (stereo not given) get here? no

Just curious, what result did C=CCSC1=N/C(=C\c2ccco2)C(=O)N1CC=C get here? no

Just curious, what result did COc1cc(/C=C/C2=NN(c3cccc(S(=O)(=O)O)c3)C3(C2)C(Cl)C(=O)N3c2nc3ccccc3s2)ccc1O (stereo not given) get here? no

Just curious, what result did CCC1(O)C(=O)OCc2c1cc1n(c2=O)Cc2cc3c(N)cccc3nc2-1 (stereo not given) get here? yes

Just curious, what result did NC(CSS(=O)(=O)c1ccccc1)C(=O)O (stereo not given) get here? no

Just curious, what result did O=C(CC(=O)c1ccncc1)c1ccccc1 get here? no

Just curious, what result did NC(=O)[C@H](Cc1ccc(O)cc1)NC1=C(Cl)C(=O)c2c(O)ccc(O)c2C1=O get here? no

Just curious, what result did O=C(c1ccccc1Br)C(F)(F)F get here? no

###

System: RPMI-8226
experiment: NCI tumour cell line growth inhibition, 48 h
Activity calls are given as the source filed them. Cut-off read from the data, not from the text of the source: active = GI50 up to about 1.1 µM and inactive = higher.
I would appreciate it if you answered using one of these outcomes: y for active, n for inactive

C/C=C/C(C/C=C(\C)CO[Si](C)(C)C(C)(C)C)O[Si](C)(C)C(C)(C)C (stereo unspecified) :: n
COc1cc2c(cc1Cl)[n+]([O-])c(C#N)c(N1CCN(c3ccc([N+](=O)[O-])cc3)CC1)[n+]2[O-] :: y
Oc1c2c(c(O)c3ccccc13)C1(N=N2)c2ccccc2Oc2ccccc21 :: n
CC(=O)Oc1ccc2cc(Oc3ccc(Cl)c(Cl)c3)c(=O)oc2c1 :: n

From here, focus on the item given below.
Just curious, what result did CC(=O)N1c2cc(/N=N/N(C)C)ccc2NC(=O)CC1C (stereo unspecified) get here? n

###

Test system: UO-31
experiment: NCI tumour cell line growth inhibition, 48 h
Calls of active or inactive are those of the source. Rule as the data show it: active = GI50 up to about 1.1 µM and inactive = higher.
Measured GI50, listed per entry for reference.

O=C(O)[C@@H]1CSCN1C(=O)[C@@H]1CCC(=S)N1 :: > 100 µM (inactive)
CCc1cccc(C(C)CC)c1NC(=O)C(=O)C(CC(=O)Nc1ccc(Cl)c(Cl)c1)C(=O)OC (centres undefined) :: 73.1 µM (inactive)
CC(=O)Oc1ccccc1C(=O)Nc1ncc([N+](=O)[O-])s1 [NITAZOXANIDE] :: 26 µM (inactive)
Cn1c(=O)nc2n(CCO)c(-c3ccccc3)c(-c3ccccc3)nc-2c1=O :: > 100 µM (inactive)
CSc1ccc2c(c1)C(N1CCN(C)CC1)Cc1ccccc1S2 (centres undefined) :: 3.63 µM (inactive)
COC(=O)C(Cc1c(C2Nc3ccccc3C2CC(NC(=O)CNC(C)=O)C(=O)OC)[nH]c2ccccc12)NC(=O)CNC(C)=O (centres undefined) :: > 100 µM (inactive)
N#C/C(=C\N1CCNC1=S)C(=O)c1ccc2ccccc2c1 :: > 100 µM (inactive)
CN(N)/N=N/c1[nH]cnc1C(N)=O :: 4 µM (inactive)

Could you now consider this next compound?
# GI50 lookup, item N=C(N)NS(=O)(=O)c1ccc(NC(=O)c2cccc3c(Nc4ccc(S(=O)(=O)N=C(N)N)cc4)c4ccc(Cl)cc4nc23)cc1 50.8 µM (inactive)
